- assayed.target: XIAP BIR2 - RIPK2 interaction (Homo sapiens)
- Construct: U2OS/NOD2 cells were lysed in TBS lysis buffer; endogenous in cells; host or cells: U2OS/NOD2 cell lysate (RIPK2); E. coli BL21 (GST-BIR2-XIAP)
- assay.summary: GST-BIR2-XIAP pulldown of RIPK2
- Assay type: binding
- test.conditions: U2OS/NOD2 lysates; inhibitors at 100-fold IC50 of RIPK2 kinase activity
measured.endpoint: pulldown of RIPK2 by GST-BIR2-XIAP from cell lysates

[
  {
    "compound": "CCCS(=O)(=O)Nc1cc(-c2cc(-c3ccc(N4CCNCC4)cc3)cnc2N)cc(F)c1OC [CSLP37]",
    "recorded.value": "efficiently antagonized"
  },
  {
    "compound": "COc1cc(-c2cc(-c3ccc(N4CCNCC4)cc3)cnc2N)cc(F)c1OC [CSLP55]",
    "recorded.value": "little effect"
  },
  {
    "compound": "CCCS(=O)(=O)Nc1cc(-c2cc(-c3ccc(N4CCNCC4)cc3)cnc2N)ccc1O [CSLP48]",
    "recorded.value": "little effect"
  },
  {
    "compound": "CCCS(=O)(=O)Nc1cc(-c2cc(-c3ccc(N4CCNCC4)cc3)cnc2N)cc(OC)c1OC [CSLP43]",
    "recorded.value": "efficiently antagonized"
  }
]

---

- System: THP1Blue cells, NOD1
- assay.summary: THP1Blue NF-κB-SEAP reporter assay, TriDAP (NOD1)
- Assay type: cell-based
- test.conditions: Homo sapiens; TriDAP 10 μg/ml; read-out: THP1-Blue NF-κB Inhibition IC50 (TriDAP)
measured.endpoint: pIC50
Just so you know, pIC50 here is -log10 of the concentration in molar units; reply with that number alone.

[
  {
    "compound": "CCCS(=O)(=O)Nc1cc(-c2cc(-c3ccc(N4CCNCC4)cc3)cnc2N)cc(F)c1OC [CSLP37]",
    "pIC50": 7.68
  }
]

We next turn to a different compound, shown below.
Query: Which pIC50 is listed for CCCS(=O)(=O)Nc1cc(-c2cc(-c3ccc(N4CCNCC4)cc3)cnc2N)cc(OC)c1OC [CSLP43] ?
Response: 8.84

---

Entries and their measured log10(IC50) follow.
- assayed.target: NanoLuc-RIPK2 (Homo sapiens)
- Sequence (O43353 whole entry): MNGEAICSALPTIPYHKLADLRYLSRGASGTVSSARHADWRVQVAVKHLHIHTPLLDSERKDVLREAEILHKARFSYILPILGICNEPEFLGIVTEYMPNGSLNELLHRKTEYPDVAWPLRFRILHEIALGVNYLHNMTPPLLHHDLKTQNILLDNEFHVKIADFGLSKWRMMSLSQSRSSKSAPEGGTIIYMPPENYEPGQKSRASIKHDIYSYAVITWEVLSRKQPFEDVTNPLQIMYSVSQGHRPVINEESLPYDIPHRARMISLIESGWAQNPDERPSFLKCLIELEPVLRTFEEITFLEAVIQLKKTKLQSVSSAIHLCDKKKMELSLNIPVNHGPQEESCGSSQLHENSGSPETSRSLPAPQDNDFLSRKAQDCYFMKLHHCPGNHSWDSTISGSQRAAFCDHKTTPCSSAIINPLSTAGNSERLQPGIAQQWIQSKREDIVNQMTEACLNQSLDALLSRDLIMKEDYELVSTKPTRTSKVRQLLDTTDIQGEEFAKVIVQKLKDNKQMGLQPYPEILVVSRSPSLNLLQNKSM
- assay.summary: nanoBRET cellular RIPK2 target engagement assay in HEKBlue cells
- test.conditions: average ± SD of at least three titrations, read-out: IC50, Cellular activity, nanoBRET RIPK2 binding
In plain terms, each number is the log10 of measured IC50 in nM.

Worked cases, answers included:
[
  {
    "molecule": "CCCS(=O)(=O)Nc1cc(-c2cc(-c3ccc(N4CCNCC4)cc3)cnc2N)ccc1O",
    "log10(IC50)": 3.09
  },
  {
    "molecule": "CCCS(=O)(=O)Nc1cc(-c2cc(-c3ccc(N4CCNCC4)cc3)cnc2N)cc(OC)c1OC",
    "log10(IC50)": 1.00
  },
  {
    "molecule": "CCCS(=O)(=O)Nc1cc(F)cc(-c2cc(-c3ccc(N4CCNCC4)cc3)cnc2N)c1",
    "log10(IC50)": 2.22
  },
  {
    "molecule": "CCCS(=O)(=O)Nc1cc(-c2cc(-c3ccc(N4CCNCC4)cc3)cnc2N)cc(F)c1OC",
    "log10(IC50)": 1.56
  },
  {
    "molecule": "Cc1ccc(-c2nn(C(C)(C)CNC(=O)c3ccncc3)c3ncnc(N)c23)cc1 [WEHI‐345, reference compound]",
    "log10(IC50)": 2.72
  },
  {
    "molecule": "CCCS(=O)(=O)Nc1cc(-c2cc(-c3ccc(N4CCNCC4)cc3)cnc2N)ccc1OC",
    "log10(IC50)": 2.76
  }
]

Query: Which log10(IC50) is listed for COc1cc(-c2cc(-c3ccc(N4CCNCC4)cc3)cnc2N)cc(F)c1OC ?
Response: 2.29
